- Tested on: TE-15;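 further: cell viability readout of growth inhibition in TE-15 cells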
- Assay Details: cells
- Type: functional, cell-based, Homo sapiens
- Condition Details: Homo sapiens, TE-15
- Description: SANGER: Inhibition of human TE-15 cell growth in a cell viability assay.
Assay Endpoint: IC50 (nM)
Please state the figure in nM; there is no need to write the unit.

Illustrative cases are given below, each with its answer.
CCN(CC)CCNC(=O)c1c(C)[nH]c(/C=C2\C(=O)Nc3ccc(F)cc32)c1C [SUNITINIB]    508
Cc1cc([N+](=O)[O-])ccc1NS(=O)(=O)c1cc(Cl)ccc1Cl    2150

Now let's try a different one.
Give its IC50 value. Item: COc1cc2ncn(-c3cc(OCc4ccccc4C(F)(F)F)c(C(N)=O)s3)c2cc1OC [GW843682X]
10.8

----------
- Tested on: EW-11;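 further: growth inhibition of human EW-11 cells, measured with a cell viability assay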
- Assay Details: cells
- Assay type: functional, cell-based, Homo sapiens
- Condition Details: Homo sapiens, EW-11
- Description: SANGER: Inhibition of human EW-11 cell growth in a cell viability assay.
Counter-ions that a name gives are not always drawn.
Below, each entry is listed with its recorded pIC50.
For clarity, pIC50 is expressed as the negative log10 of concentration in mol/L.

COc1cccc2c1C(=O)c1c(O)c3c(c(O)c1C2=O)C[C@@](O)(C(=O)CO)C[C@@H]3O[C@H]1C[C@H](N)[C@H](O)[C@H](C)O1    6.47
Nc1ccn([C@@H]2O[C@H](CO)[C@@H](O)C2(F)F)c(=O)n1    6.36
CC(C)CCN1c2nc(Nc3cc(F)c(O)c(F)c3)ncc2N(C)C(=O)C1C (stereo not given)    5.47

Now let's try a different one.
Give its pIC50 value. Item: COC1=CC(c2cc3ccccc3[nH]2)=N/C1=C\c1[nH]c(C)cc1C [OBATOCLAX MESYLATE]
5.29

----------
- System: SK-MM-2
- Assay Details: cells
- Type: functional, cell-based, Homo sapiens
- Condition Details: Homo sapiens, SK-MM-2
- Description: SANGER: Inhibition of human SK-MM-2 cell growth in a cell viability assay.
Assay Endpoint: IC50

CC(=O)O[C@H]1C(=O)[C@@]2(C)[C@H]([C@H](OC(=O)c3ccccc3)[C@]3(O)C[C@H](OC(=O)[C@H](O)[C@@H](NC(=O)c4ccccc4)c4ccccc4)C(C)=C1C3(C)C)[C@]1(OC(C)=O)CO[C@@H]1C[C@@H]2O [PACLITAXEL]    > 0.102 µM
N#Cc1c(O)c2c(-c3ccc(-c4ccccc4O)cc3)csc2[nH]c1=O    0.109 µM
Oc1ccc2ccccc2c1SSc1c(O)ccc2ccccc12    > 32 µM
O=C(O)c1ccc(-c2c[nH]c3ncc(-c4ccccc4)cc23)cc1C1CCCC1 [GSK-650394]    > 16 µM

Now let's try a different one.
// lookup IC50 | system=SK-MM-2 | key= C=C(c1ccc(C(=O)O)cc1)c1cc2c(cc1C)C(C)(C)CCC2(C)C [BEXAROTENE];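 further: growth inhibition of human SK-MM-2 cells, read out with a cell viability assay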
> 8 µM

----------
- Test system: GI-1;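 further: growth inhibition of human GI-1 cells, measured with a cell viability readout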
- Assay Details: cells
- Assay type: functional, cell-based, Homo sapiens
- Condition Details: Homo sapiens, GI-1
- Description: SANGER: Inhibition of human GI-1 cell growth in a cell viability assay.
Below, each entry is listed with its recorded IC50.

CCN(CC)CCNC(=O)c1c(C)[nH]c(/C=C2\C(=O)Nc3ccc(F)cc32)c1C [SUNITINIB]    > 8 µM

Give its IC50 value. Item: Nc1ccn([C@@H]2O[C@H](CO)[C@@H](O)C2(F)F)c(=O)n1 [GEMCITABINE]
0.00276 µM

Give its IC50 value. Item: O=C(O)c1ccc(-c2c[nH]c3ncc(-c4ccccc4)cc23)cc1C1CCCC1 [GSK-650394]
> 16 µM

Origin of values: ChEMBL document CHEMBL1201861
